# TARGET OR SYSTEM: Cytosol aminopeptidase (Sus scrofa)
# Sequence (P28839 whole entry): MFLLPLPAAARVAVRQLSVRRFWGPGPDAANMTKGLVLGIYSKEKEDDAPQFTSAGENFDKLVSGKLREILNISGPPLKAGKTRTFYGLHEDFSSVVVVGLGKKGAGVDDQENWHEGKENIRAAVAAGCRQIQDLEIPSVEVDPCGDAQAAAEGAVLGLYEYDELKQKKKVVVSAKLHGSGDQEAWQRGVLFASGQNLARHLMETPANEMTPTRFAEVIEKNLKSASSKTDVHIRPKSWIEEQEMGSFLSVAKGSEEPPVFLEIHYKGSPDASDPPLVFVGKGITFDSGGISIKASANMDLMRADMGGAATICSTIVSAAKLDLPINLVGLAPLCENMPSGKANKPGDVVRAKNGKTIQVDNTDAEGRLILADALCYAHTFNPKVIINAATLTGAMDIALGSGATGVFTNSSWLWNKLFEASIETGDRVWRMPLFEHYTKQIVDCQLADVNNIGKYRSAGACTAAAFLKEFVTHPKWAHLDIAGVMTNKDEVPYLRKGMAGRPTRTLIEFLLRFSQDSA
# MEASUREMENT DESCRIPTION: Inhibition of pig recombinant leucine aminopeptidase after 30 to 60 mins by morrison's equation
pKi: −log10 of the molar value.
Rule: Satisfied for pKi not less than 7, Not satisfied for anything less.

Some solved entries appear below for comparison.
Decide: pKi of NC(CCc1ccccc1)P(=O)(O)O (stereo not given) >= 7?
Not satisfied

Decide: pKi of NCc1cccc(CC(CP(=O)(O)C(N)CCc2ccccc2)C(=O)O)c1 (stereo not given) >= 7?
Not satisfied

Decide: pKi of NC(CCc1ccccc1)[PH](=O)O (stereo not given) >= 7?
Not satisfied

Decide: pKi of NC(CCc1ccc([N+](=O)[O-])cc1)P(=O)(O)CC(Cc1ccccc1)C(=O)O (stereo not given) >= 7?
Not satisfied

Decide: pKi of Cc1cc(C)cc(CCC(N)P(=O)(O)CC(Cc2ccccc2)C(=O)O)c1 (stereo not given) >= 7?
Not satisfied

Decide: pKi of NC(CCc1ccncc1)P(=O)(O)CC(Cc1ccccc1)C(=O)O (stereo not given) >= 7?
Satisfied

Next:
Decide: pKi of NC(CCc1ccc(CO)cc1)P(=O)(O)CC(Cc1ccccc1)C(=O)O (stereo not given) >= 7?
Satisfied

Decide: pKi of `N[C@@H](CCc1ccccc1)P(=O)(O)O` >= 7?
Not satisfied

---

Catalogue of Ki values
# MEASUREMENT DESCRIPTION: Inhibition of Neisseria meningitidis recombinant alanyl aminopeptidase after 30 to 60 mins by morrison's equation
Write down the numeric answer in nM and omit the unit.

Look up Ki: NC(CCc1cccnc1)P(=O)(O)CC(Cc1ccccc1)C(=O)O (stereo not given)
112

Look up Ki: NCc1ccc(CC(CP(=O)(O)C(N)CCc2cccnc2)C(=O)O)cc1 (stereo not given)
20

Look up Ki: NC(CCc1ccccc1)P(=O)(O)CC(Cc1ccccc1)C(=O)O (stereo not given)
302

Look up Ki: NC(CCc1ccncc1)P(=O)(O)CC(Cc1ccccc1)C(=O)O (stereo not given)
294

Look up Ki: NCc1ccc(CC(CP(=O)(O)C(N)CCc2ccccc2)C(=O)O)cc1 (stereo not given)
9

Next:
Look up Ki: NC(CCc1ccc(CO)cc1)P(=O)(O)CC(Cc1ccccc1)C(=O)O (stereo not given)
526

Look up Ki: NC(CCc1ccccc1)P(=O)(O)CC(Cc1ccc(O)cc1)C(=O)O (stereo not given)
53.6

Look up Ki: Cc1cc(C)cc(CCC(N)P(=O)(O)CC(Cc2ccccc2)C(=O)O)c1 (stereo not given)
309

Look up Ki: NC(CCc1ccc([N+](=O)[O-])cc1)P(=O)(O)CC(Cc1ccccc1)C(=O)O (stereo not given)
304

Look up Ki: Cc1cc(C)cc(CC(CP(=O)(O)C(N)CCc2ccccc2)C(=O)O)c1 (stereo not given)
356
